Measured values drawn from ChEMBL document CHEMBL1147951 for this set.

Tested on: Candida albicans
Test: Antimicrobial activity against Candida albicans by broth microdilution assay
Assay type: functional
observable: MIC (µM)
Response body: numeric value in µM, unit text excluded.

>  <structure-smiles-string>
CCCCCCCN(CCCCCCC)C(=O)NC(CCC(=O)O)(CCC(=O)O)CCC(=O)O

>  <MIC / µM>
1600

$$$$

Task: Using the record for CCCCCCCCN(CCCCCCCC)C(=O)NC(CCC(=O)O)(CCC(=O)O)CCC(=O)O , state its measured MIC.
Result: 190

---

System: Lactiplantibacillus plantarum
Assay: Antimicrobial activity against Lactobacillus plantarum by broth microdilution assay
Assay type: functional
Let's look at some compounds and their measured MIC.
Response body: numeric value in mM, unit text excluded.

The examples below pair each entry with its known result.
>  <structure-smiles-string>
CCCCCCCC(CCCCCCC)NC(=O)NC(CCC(=O)O)(CCC(=O)O)CCC(=O)O

>  <MIC (mM)>
6.2

$$$$
>  <structure-smiles-string>
CCCCCCCCCCN(CCCCCCCCCC)C(=O)NC(CCC(=O)O)(CCC(=O)O)CCC(=O)O

>  <MIC (mM)>
11

$$$$
>  <structure-smiles-string>
CCCCCCCCCCCCC(CCCCCCCCCCCC)NC(=O)NC(CCC(=O)O)(CCC(=O)O)CCC(=O)O

>  <MIC (mM)>
9.8

$$$$
>  <structure-smiles-string>
CCCCCCCCCCCCCCNC(=O)NC(CCC(=O)O)(CCC(=O)O)CCC(=O)O

>  <MIC (mM)>
6.4

$$$$

Task: Using the record for CCCCCCCCCCCCCCCCCCCCNC(=O)NC(CCC(=O)O)(CCC(=O)O)CCC(=O)O , state its measured MIC.
Result: 1.4

Task: Using the record for CCCCCCCCCCCC(CCCCCCCCCCC)NC(=O)NC(CCC(=O)O)(CCC(=O)O)CCC(=O)O , state its measured MIC.
Result: 10

Task: Using the record for CCCCCCCCCC(CCCCCCCCC)NC(=O)NC(CCC(=O)O)(CCC(=O)O)CCC(=O)O , state its measured MIC.
Result: 5.6

Task: Using the record for CCCCCCCCCCCN(CCCCCCCCCCC)C(=O)NC(CCC(=O)O)(CCC(=O)O)CCC(=O)O , state its measured MIC.
Result: 10

Task: Using the record for CCCCCCCCCCCCCCCCCCCCCCNC(=O)NC(CCC(=O)O)(CCC(=O)O)CCC(=O)O , state its measured MIC.
Result: 0.95

Task: Using the record for CCCCCCCN(CCCCCCC)C(=O)NC(CCC(=O)O)(CCC(=O)O)CCC(=O)O , state its measured MIC.
Result: 6.4

Task: Using the record for CCCCCCCCCCCCCCCCCCNC(=O)NC(CCC(=O)O)(CCC(=O)O)CCC(=O)O , state its measured MIC.
Result: 1.4

Task: Using the record for CCCCCCCCC(CCCCCCCC)NC(=O)NC(CCC(=O)O)(CCC(=O)O)CCC(=O)O , state its measured MIC.
Result: 5.9

Task: Using the record for CCCCCCCCCCC(CCCCCCCCCC)NC(=O)NC(CCC(=O)O)(CCC(=O)O)CCC(=O)O , state its measured MIC.
Result: 5.3

Task: Using the record for CCCCCCCCCN(CCCCCCCCC)C(=O)NC(CCC(=O)O)(CCC(=O)O)CCC(=O)O , state its measured MIC.
Result: 12

Task: Using the record for CCCCCCCCN(CCCCCCCC)C(=O)NC(CCC(=O)O)(CCC(=O)O)CCC(=O)O , state its measured MIC.
Result: 1.5

Task: Using the record for CCCCCCCCCCCCCCCCNC(=O)NC(CCC(=O)O)(CCC(=O)O)CCC(=O)O , state its measured MIC.
Result: 6.1
